# measured-on: MMP2 (Homo sapiens, UniProt P08253)
# Sequence (P08253 110-660): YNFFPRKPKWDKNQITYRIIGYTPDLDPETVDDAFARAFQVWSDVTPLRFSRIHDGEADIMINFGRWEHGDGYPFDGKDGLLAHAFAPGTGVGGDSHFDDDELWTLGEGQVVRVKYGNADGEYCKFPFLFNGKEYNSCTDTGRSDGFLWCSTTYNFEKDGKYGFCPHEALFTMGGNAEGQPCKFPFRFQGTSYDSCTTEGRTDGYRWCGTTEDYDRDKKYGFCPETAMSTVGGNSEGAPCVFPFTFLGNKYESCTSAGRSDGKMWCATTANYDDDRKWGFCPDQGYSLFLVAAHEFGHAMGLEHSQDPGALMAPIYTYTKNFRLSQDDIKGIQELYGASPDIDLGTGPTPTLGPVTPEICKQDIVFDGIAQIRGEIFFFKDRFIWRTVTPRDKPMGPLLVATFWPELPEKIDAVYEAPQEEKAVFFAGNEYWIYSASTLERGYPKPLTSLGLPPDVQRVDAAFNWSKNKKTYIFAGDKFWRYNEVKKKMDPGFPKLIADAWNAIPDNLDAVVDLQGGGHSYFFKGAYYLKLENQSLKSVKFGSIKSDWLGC
# test-protocol: Inhibitory effects on human MMP2 (Method 1), enzyme assay with MOCAc-Pro-Leu-Gly-Leu-A2pr(Dnp)-Ala-Arg-NH2 substrate, 96-well
# Assay type: biochemical
# assay-context: Test Example No. 1-1 (Method 1, 96-well microplate); read-out: Human MMP2, IC50
*1 amine or outer side, *2 acyl side, *3 side chain or, on linkers, in order; H or OH if unused. Where a SMILES comes first, the peptide text is derived from it. [ ]: non-standard residue; d: D form. The star is where a group is joined. Benzoyl(4-(4-EtNHCO-PhO)) = CCNC(=O)c1ccc(Oc2ccc(C(=O)*)cc2)cc1; X15 = CC(=O)c1ccc(-c2ccc(S(=O)(=O)*)cc2)cc1; Benzoyl(4-OPh) = O=C(c1ccc(Oc2ccccc2)cc1)*; d(βAsp) = O=C(O)[C@@H](CC(=O)[*:2])N[*:1]; NMeI = CC[C@H](C)[C@H](NC)C(=O)O; NMeE = CN[C@@H](CCC(=O)O)C(=O)O; NMeN = CN[C@@H](CC(N)=O)C(=O)O; Dap(Me) = CNC[C@H](N)C(=O)O; β3hP = O=C(O)C[C@@H]1CCCN1; Dab = NCC[C@H](N)C(=O)O; Ahx = NCCCCCC(=O)O; GABA = NCCCC(=O)O
measurement-label: IC50 (nM)
The response must be a number in nM with no trailing unit.

Below, each entry is followed by its recorded IC50 result.
[
  {
    "compound": "CCNC(=O)c1ccc(Oc2ccc(C(=O)NCCCCCC(=O)N[C@@H](CCCCN)C(=O)N[C@@H](CC(=O)O)C(=O)N[C@@H](CCN)C(=O)N[C@@H](CC(C)C)C(=O)N(C)[C@@H](CCC(=O)O)C(=O)N3CCC[C@H]3CC(N)=O)cc2)cc1 [Compound 194] ({Benzoyl(4-(4-EtNHCO-PhO))-Ahx}-KD[Dab]L[NMeE][β3hP]-NH2; N-terminus assumed)",
    "measurement-label": "IC50",
    "measurement": 3.7
  },
  {
    "compound": "CC[C@H](C)[C@@H](C(=O)N1CCC[C@H]1CC(N)=O)N(C)C(=O)[C@H](CC(C)C)NC(=O)[C@H](C)NC(=O)C[C@@H](NS(=O)(=O)c1ccc(-c2ccc(C(C)=O)cc2)cc1)C(=O)O [Compound 634] ({X15-d(βAsp)}-AL[NMeI][β3hP]-NH2)",
    "measurement-label": "IC50",
    "measurement": 0.13
  }
]

The record that follows has no IC50 shown yet.
Q: Provide value of IC50 for this record tested with MMP2 (Homo sapiens, UniProt P08253): CC[C@H](C)[C@@H](C(=O)N1CCC[C@H]1CC(N)=O)N(C)C(=O)[C@H](CC(C)C)NC(=O)[C@H](CNC)NC(=O)[C@H](CC(=O)O)NC(=O)[C@H](CC(N)=O)N(C)C(=O)CCCNC(=O)c1ccc(Oc2ccccc2)cc1 [Compound 154] ({Benzoyl(4-OPh)-GABA}-[NMeN]D[Dap(Me)]L[NMeI][β3hP]-NH2; N-terminus assumed)
A: 0.44

The origin of these recorded values is patent US20240199692A1.
